These entries and their values trace back to patent US12234238B2.

# Assay notes: Rat infusion study: clinical signs and IV plasma pharmacokinetics across infusion lengths
# Assay type: in vivo
# Assay conditions: male, Sprague-Dawley, rat, plasma, iv, 4 mg/kg, male Sprague-Dawley rats, plasma, 4 mg/kg IV; second of two cells, infusion group(s) unclear (grid: 1 h); read-out: T½ (h)-terminal (converted)
Outcome measure: half-life (h)
One number for each entry, in h.

Query block: Given the compound C[C@H](N)CCCc1cc(Cl)c(F)c(-c2cc3cn(-c4ccc([C@@H]5CCC[C@@H](CCSC(=N)N)N5)cc4)c(=O)nc3[nH]2)c1 , write its reported half-life.
Result block: 15.2
